assayed system: UniProt:P51449
Sequence (P51449 258-518): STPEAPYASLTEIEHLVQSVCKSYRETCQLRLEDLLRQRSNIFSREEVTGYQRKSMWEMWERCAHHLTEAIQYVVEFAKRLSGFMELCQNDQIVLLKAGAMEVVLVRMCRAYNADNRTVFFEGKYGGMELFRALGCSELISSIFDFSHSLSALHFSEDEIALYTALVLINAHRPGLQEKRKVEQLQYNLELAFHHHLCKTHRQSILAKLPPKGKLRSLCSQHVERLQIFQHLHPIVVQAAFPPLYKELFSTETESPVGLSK
method summary: RORγt reporter assay (GAL4-RORγt LBD luciferase in HEK293T cells)
Type: cell-based
assay setup: HEK293T cells, 24 hours compound treatment
IC50 overview
Answer with a number only, understood to be in µM.

Example compounds with recorded IC50:
COc1ccc(C(O)(c2ccc3nc(OC)c(Cc4ccc(-n5cccn5)cc4)c(Cl)c3c2)c2cncn2C)cn1 (stereo not shown) [Example 22] | 0.091
CCc1nc2ccc(C(O)(c3cnnn3C)C3CN(C(C)=O)C3)cc2c(Cl)c1Cc1ccc(C(F)(F)F)cc1 (stereo not shown) [Example 90A] | 0.011
COc1nc2c(C)cc(C(O)(c3cncn3C)c3cncn3C)cc2c(Cl)c1Cc1ccc(-n2cccn2)cc1 [Example 56] | 0.012

GET /values?readout=IC50&system=UniProt:P51449&item= OC(c1ccc(F)cc1)(c1cccnc1)c1ccc2nc(Cl)c(Cc3ccc(-n4cccn4)cc3)c(Cl)c2c1 (stereo not shown) [Example 46] 0.052

For COc1ccc(C(O)(c2ccc3nc(OC)c(Cc4ccc(-n5cccn5)cc4)c(Cl)c3c2)c2cncs2)cn1 (single isomer, unassigned) [Example 20B] then? 0.047
